Origin of values: patent US20230287125A1

targetOrTestSystem: T1, human PD-L1-his tag protein (human, UniProt Q9NZQ7 19-238)
T1 construct: also called human PD-L1-His protein; recombinant PD-L1 protein; not shown: his tag
T1 sequence (Q9NZQ7 19-238 limits assumed): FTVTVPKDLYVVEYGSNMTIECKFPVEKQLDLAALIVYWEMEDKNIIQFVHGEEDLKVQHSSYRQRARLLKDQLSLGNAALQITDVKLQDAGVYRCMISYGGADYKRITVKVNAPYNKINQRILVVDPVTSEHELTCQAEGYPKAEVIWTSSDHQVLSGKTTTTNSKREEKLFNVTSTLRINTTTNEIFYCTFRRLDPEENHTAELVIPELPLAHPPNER
method: SPR (Biacore), affinity ranking, PDL1-His
quantityMeasured: koff (s⁻¹)
API: value field is a number in s⁻¹; no unit string.

>>> assayresult("Hu67F3G7-5 (antibody, V domains shown, humanized) VH: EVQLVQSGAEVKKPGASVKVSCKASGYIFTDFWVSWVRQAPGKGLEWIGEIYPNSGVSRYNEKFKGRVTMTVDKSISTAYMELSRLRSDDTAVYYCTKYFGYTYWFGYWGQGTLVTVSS VL: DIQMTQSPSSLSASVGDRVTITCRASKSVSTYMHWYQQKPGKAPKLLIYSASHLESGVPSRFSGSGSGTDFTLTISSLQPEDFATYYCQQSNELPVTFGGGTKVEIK")
"9.71e-05"
>>> assayresult("Hu89C10H8-9 (antibody, V domains shown, humanized) VH: EVQLVESGGGLVKPGGSLRLSCAASGFTFSNYWMTWVRQAPGKGLEWVASITNTGSSTFYPDSVKGRFTISRDNAKNSLYLQMNSLRAEDTAVYYCARDTTIAPFDYWGQGTMVTVSS VL: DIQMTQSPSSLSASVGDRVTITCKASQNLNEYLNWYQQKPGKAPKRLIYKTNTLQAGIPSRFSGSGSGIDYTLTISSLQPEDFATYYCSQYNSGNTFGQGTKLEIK")
0.000478
>>> assayresult("Hu89C10H8-11 (antibody, V domains shown, humanized) VH: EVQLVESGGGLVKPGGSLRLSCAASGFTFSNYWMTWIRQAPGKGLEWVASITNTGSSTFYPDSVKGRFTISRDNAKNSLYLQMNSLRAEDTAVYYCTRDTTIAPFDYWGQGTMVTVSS VL: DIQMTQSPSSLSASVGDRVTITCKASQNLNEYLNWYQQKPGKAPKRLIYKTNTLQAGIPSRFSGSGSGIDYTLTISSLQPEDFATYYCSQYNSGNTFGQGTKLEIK")
"6.73e-05"
>>> assayresult("Hu89C10H8-1 (antibody, V domains shown, humanized) VH: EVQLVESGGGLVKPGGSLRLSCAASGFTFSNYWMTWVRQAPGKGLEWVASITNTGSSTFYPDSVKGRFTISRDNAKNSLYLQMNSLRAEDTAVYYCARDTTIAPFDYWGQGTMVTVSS VL: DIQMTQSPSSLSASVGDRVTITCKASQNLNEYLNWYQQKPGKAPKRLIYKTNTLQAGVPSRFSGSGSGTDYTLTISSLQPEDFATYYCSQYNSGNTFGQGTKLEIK")
0.000465

Prompt: Please supply the value of reported koff for the item Hu67F3G7-17 (antibody, V domains shown, humanized) VH: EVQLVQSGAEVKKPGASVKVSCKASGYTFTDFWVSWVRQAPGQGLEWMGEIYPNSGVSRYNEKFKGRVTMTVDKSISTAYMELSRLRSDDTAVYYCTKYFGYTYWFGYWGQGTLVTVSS VL: DTVLTQSPSLSASVGDRVTITCRASKSVSTYMHWYQQKPGKQPKLLIYSASHLESGVPSRFSGSGSGTDFTLTISSLQPEDFATYYCQQSNELPVTFGGGTKVEIK
Response: 0.000101

Prompt: Please supply the value of reported koff for the item Hu67F3G7-7 (antibody, V domains shown, humanized) VH: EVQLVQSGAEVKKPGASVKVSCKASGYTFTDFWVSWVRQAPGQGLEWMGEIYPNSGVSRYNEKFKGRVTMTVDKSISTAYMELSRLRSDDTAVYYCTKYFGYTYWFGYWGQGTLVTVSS VL: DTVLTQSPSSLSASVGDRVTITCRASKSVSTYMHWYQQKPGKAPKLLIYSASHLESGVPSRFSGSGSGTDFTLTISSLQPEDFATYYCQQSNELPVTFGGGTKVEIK
Response: 9.49e-05
